Tested on: 624824-186-R-J3-PDC multicell spheroids, viability
ASSAY OVERVIEW: Anticancer human tumor 624824-186-R-J3-PDC patient-derived colon adenocarcinoma cell line growth inhibition [PI3K]
CONDITION INFO: second compound 0.0316 µM; first compound 0.000316 µM; stronger effect = lower value
The compounds listed here are annotated with their viability, T/C.
OBSERVED PROPERTY: viability, T/C (%)

INSERT INTO assay_data (compound, observed_property, unit_abbrev, test_value) VALUES
  ('Cn1ncnc1[C@H]1c2n[nH]c(=O)c3cc(F)cc(c23)N[C@@H]1c1ccc(F)cc1 + Cc1nc(NC(=O)N2CCCC2C(N)=O)sc1-c1ccnc(C(C)(C)C(F)(F)F)c1', 'viability, T/C', '%', 106),
  ('CC(C)n1nc(-c2ccc3oc(N)nc3c2)c2c(N)ncnc21 + COc1c(OCCCN2CCOCC2)ccc2c3n(c(=NC(=O)c4cnc(N)nc4)nc12)CCN3', 'viability, T/C', '%', 97.8),
  ('CC(C)n1nc(-c2ccc3oc(N)nc3c2)c2c(N)ncnc21 + Cc1nc(NC(=O)N2CCCC2C(N)=O)sc1-c1ccnc(C(C)(C)C(F)(F)F)c1', 'viability, T/C', '%', 110),
  ('CC(=O)c1c(C)c2cnc(Nc3ccc(N4CCNCC4)cn3)nc2n(C2CCCC2)c1=O + CC(Nc1ccc2c(c1)OCCn1cc(N3C(=O)OCC3C(F)F)nc1-2)C(N)=O', 'viability, T/C', '%', 101),
  ('Cn1ncnc1[C@H]1c2n[nH]c(=O)c3cc(F)cc(c23)N[C@@H]1c1ccc(F)cc1 + CC(Nc1ncnc2nc[nH]c12)c1cc2cccc(Cl)c2c(=O)n1-c1ccccc1', 'viability, T/C', '%', 104),
  ('CC(=O)c1c(C)c2cnc(Nc3ccc(N4CCNCC4)cn3)nc2n(C2CCCC2)c1=O + CC(Nc1ncnc2nc[nH]c12)c1cc2cccc(Cl)c2c(=O)n1-c1ccccc1', 'viability, T/C', '%', 107);

* * *

Test system: 624824-186-R-J3-PDC multicell spheroids, viability
ASSAY OVERVIEW: Anticancer human tumor 624824-186-R-J3-PDC cell line growth inhibition [PI3K];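 note: spheroids exposed to agents for seven days before luminescence read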;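 for viability, T/C: luminescent signal used as a stand-in for spheroid viability; percent viability relative to DMSO vehicle control wells taken as 100%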
CONDITION INFO: second compound 1 µM; first compound 0.1 µM; stronger effect = lower value
Strictly below 90% in viability, T/C: Condition met. Otherwise: Condition not met.

INSERT INTO assay_data (compound, qualitative_label) VALUES
  ('CC1(C)CCC(CN2CCN(c3ccc(C(=O)NS(=O)(=O)c4ccc(NCC5CCOCC5)c([N+](=O)[O-])c4)c(Oc4cnc5[nH]ccc5c4)c3)CC2)=C(c2ccc(Cl)cc2)C1 + Cc1nc(NC(=O)N2CCCC2C(N)=O)sc1-c1ccnc(C(C)(C)C(F)(F)F)c1', 'Condition not met'),
  ('CC(Cn1ccc(-c2ccc(C#N)c(Cl)c2)n1)NC(=O)c1cc(C(C)O)[nH]n1 (stereo unspecified) + COc1c(OCCCN2CCOCC2)ccc2c3n(c(=NC(=O)c4cnc(N)nc4)nc12)CCN3', 'Condition met'),
  ('CC1(C)CCC(Nc2ncc(C(F)(F)F)c(-c3c[nH]c4c(P(C)(C)=O)c(C#N)ccc34)n2)CN1 (stereo unspecified) + COc1c(OCCCN2CCOCC2)ccc2c3n(c(=NC(=O)c4cnc(N)nc4)nc12)CCN3', 'Condition met'),
  ('Cn1nccc1Nc1nccc(-c2ccn(C(CO)c3ccc(Cl)c(F)c3)c(=O)c2)n1 (stereo unspecified) + COc1c(OCCCN2CCOCC2)ccc2c3n(c(=NC(=O)c4cnc(N)nc4)nc12)CCN3', 'Condition met'),
  ('CC1(C)CCC(Nc2ncc(C(F)(F)F)c(-c3c[nH]c4c(P(C)(C)=O)c(C#N)ccc34)n2)CN1 (stereo unspecified) + CC(Nc1ccc2c(c1)OCCn1cc(N3C(=O)OCC3C(F)F)nc1-2)C(N)=O', 'Condition met'),
  ('CNC(=O)c1ccc(N2C(=S)N(c3ccc(C#N)c(C(F)(F)F)c3)C(=O)C2(C)C)cc1F + Cc1nc(NC(=O)N2CCCC2C(N)=O)sc1-c1ccnc(C(C)(C)C(F)(F)F)c1', 'Condition not met'),
  ('CC(=O)c1c(C)c2cnc(Nc3ccc(N4CCNCC4)cn3)nc2n(C2CCCC2)c1=O + COc1c(OCCCN2CCOCC2)ccc2c3n(c(=NC(=O)c4cnc(N)nc4)nc12)CCN3', 'Condition met'),
  ('Cn1ncnc1[C@H]1c2n[nH]c(=O)c3cc(F)cc(c23)N[C@@H]1c1ccc(F)cc1 + Cc1nc(NC(=O)N2CCCC2C(N)=O)sc1-c1ccnc(C(C)(C)C(F)(F)F)c1', 'Condition not met');

* * *

The molecules listed here are annotated with their viability, T/C.
Test system: 624824-186-R-J3-PDC multicell spheroids, viability
ASSAY OVERVIEW: Anticancer human tumor 624824-186-R-J3-PDC cell line growth inhibition [PI3K];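 note: spheroids exposed to agents for seven days before luminescence read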;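 for viability, T/C: luminescent signal used as a stand-in for spheroid viability; percent viability relative to DMSO vehicle control wells taken as 100%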
CONDITION INFO: second compound 0.1 µM; first compound 10 µM; stronger effect = lower value
OBSERVED PROPERTY: viability, T/C (%)

INSERT INTO results (molecule, target, unit_abbrev, test_value) VALUES
  ('Cn1nccc1Nc1nccc(-c2ccn(C(CO)c3ccc(Cl)c(F)c3)c(=O)c2)n1 (stereo not drawn) + CC(Nc1ccc2c(c1)OCCn1cc(N3C(=O)OCC3C(F)F)nc1-2)C(N)=O', '624824-186-R-J3-PDC multicell spheroids, viability', '%', 24.8),
  ('CNC(=O)c1ccc(N2C(=S)N(c3ccc(C#N)c(C(F)(F)F)c3)C(=O)C2(C)C)cc1F + COc1c(OCCCN2CCOCC2)ccc2c3n(c(=NC(=O)c4cnc(N)nc4)nc12)CCN3', '624824-186-R-J3-PDC multicell spheroids, viability', '%', 72.5),
  ('CC(Cn1ccc(-c2ccc(C#N)c(Cl)c2)n1)NC(=O)c1cc(C(C)O)[nH]n1 (stereo not drawn) + Cc1nc(NC(=O)N2CCCC2C(N)=O)sc1-c1ccnc(C(C)(C)C(F)(F)F)c1', '624824-186-R-J3-PDC multicell spheroids, viability', '%', 109);

* * *

The molecules listed here are annotated with their pIC50.
System: 624824-186-R-J3-PDC multicell spheroids, viability
ASSAY OVERVIEW: Anticancer human tumor 624824-186-R-J3-PDC cell line growth inhibition [PI3K];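 note: spheroids exposed to agents for seven days before luminescence read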
CONDITION INFO: curve of first compound; second compound 0.1 µM
Text: Combinatorial screen of targeted agents with the PI3K inhibitors inavolisib, alpelisib, duvelisib, and copanlisib in multi-cell type tumor spheroids A high-throughput screen of multi-cell type tumor spheroids was designed to identify active combinations of targeted small molecules and PI3K pathway inhibitors. […] Compounds. […] If the clinical Cmax for an agent had not been determined, the highest concentration tested was 10 microM. […]
pIC50: −log10 of the molar value.
OBSERVED PROPERTY: pIC50

INSERT INTO results (molecule, qualifier_symbol, test_value) VALUES
  ('CC(=O)c1c(C)c2cnc(Nc3ccc(N4CCNCC4)cn3)nc2n(C2CCCC2)c1=O + COc1c(OCCCN2CCOCC2)ccc2c3n(c(=NC(=O)c4cnc(N)nc4)nc12)CCN3', '=', 7.03),
  ('Cn1nccc1Nc1nccc(-c2ccn(C(CO)c3ccc(Cl)c(F)c3)c(=O)c2)n1 (stereo not drawn) + Cc1nc(NC(=O)N2CCCC2C(N)=O)sc1-c1ccnc(C(C)(C)C(F)(F)F)c1', '=', 5.30),
  ('C=CC(=O)N1CCN(c2nc(=O)n(-c3c(C)ccnc3C(C)C)c3nc(-c4c(O)cccc4F)c(F)cc23)C(C)C1 (stereo not drawn) + COc1c(OCCCN2CCOCC2)ccc2c3n(c(=NC(=O)c4cnc(N)nc4)nc12)CCN3', '<', 5.00);

* * *

Tested on: 624824-186-R-J3-PDC multicell spheroids, viability
ASSAY OVERVIEW: Anticancer human tumor 624824-186-R-J3-PDC cell line growth inhibition [PI3K];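 note: spheroids exposed to agents for seven days before luminescence read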;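 for viability, T/C: luminescent signal used as a stand-in for spheroid viability; percent viability relative to DMSO vehicle control wells taken as 100%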
CONDITION INFO: second compound 1 µM; first compound 0.1 µM; stronger effect = lower value
OBSERVED PROPERTY: viability, T/C

INSERT INTO measurements (compound, test_value) VALUES
  ('CC(Cn1ccc(-c2ccc(C#N)c(Cl)c2)n1)NC(=O)c1cc(C(C)O)[nH]n1 (stereo not drawn) + CC(Nc1ncnc2nc[nH]c12)c1cc2cccc(Cl)c2c(=O)n1-c1ccccc1', '111%'),
  ('C#Cc1c(F)ccc2cc(O)cc(-c3ncc4c(N5CC6CCC(C5)N6)nc(OCC56CCCN5CC(F)C6)nc4c3F)c12 (stereo not drawn) + CC(Nc1ncnc2nc[nH]c12)c1cc2cccc(Cl)c2c(=O)n1-c1ccccc1', '110%'),
  ('Cn1ncnc1[C@H]1c2n[nH]c(=O)c3cc(F)cc(c23)N[C@@H]1c1ccc(F)cc1 + CC(Nc1ccc2c(c1)OCCn1cc(N3C(=O)OCC3C(F)F)nc1-2)C(N)=O', '86.6%');
